# TARGET UNDER TEST: T1, EphA2 ligand binding domain (EphA2 LBD, residues 28-200) with N-terminal MASQGPG and C-terminal Ala-6xHis tag (UniProt P29317 28-200)
# T1 construct: range 28-200; Expressed in E. coli Origami 2 (DE3); used for ITC and crystallization
# T1 sequence (P29317 other isoform, or with tags, fused parts or gaps limits assumed, form in doubt): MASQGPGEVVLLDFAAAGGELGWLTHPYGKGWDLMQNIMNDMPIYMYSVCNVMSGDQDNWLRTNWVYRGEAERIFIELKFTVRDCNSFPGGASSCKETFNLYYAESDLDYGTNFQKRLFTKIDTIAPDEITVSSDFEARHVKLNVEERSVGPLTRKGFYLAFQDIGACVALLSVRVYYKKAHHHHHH
# TEST NAME: ITC, peptide titrated into EphA2 LBD, 23 °C; average ± SE (number of experiments)
pKd: −log10 of the molar value. Non-standard residues stand in square brackets, D forms with d. No end group written: not given here. βAla = NCCC(=O)O
Examples of binders with documented pKd follow.
READOUT TYPE: pKd

- [βAla]WLAYPDSVPYRPK (also called BA-WLA-YRPK) [βA-WLA-YRPK]: 6.72
- YSAYPDSVPMMSGSGSK [YSA-GSGSK]: 5.10
- [βAla]WLAYPDSVPYRPK-NH2 (also called BA-WLA-YRPKam) [βA-WLA-YRPKam]: 6.96
